These measurements were taken from PubChem BioAssay (NCI).

# Test system: SW-620 colon
# assay explanation: NCI-60 one-dose screen, 48 h (100 = growth as untreated, 0 = no growth, -100 = all killed)
# protocol conditions: 10 µM unless noted
The panel holds about 83,000 compounds, 20% with a hit somewhere; the sample as a whole holds those more often.
recorded metric: growth (%)

compound=COCCN(C(=O)c1ccc(F)cc1F)c1c(N)n(Cc2ccccc2)c(=O)[nH]c1=O unit_descriptor=% number=108
compound=O=C1c2cccc(NCCN=Cc3cc([N+](=O)[O-])ccc3O)c2C(=O)c2c(NCCN=Cc3cc([N+](=O)[O-])ccc3O)cccc21 unit_descriptor=% number=29.8
compound="COc1cc(C2CC(=O)Nc3c2c(C)nn3-c2nc3ccccc3[nH]2)c(OC)c2c1OCO2 (stereo not given)" unit_descriptor=% number=47.1
compound=CCCCCCCCCCCCCCCCCCOc1ccccc1CC(=O)OCCC[N+](C)(C)C unit_descriptor=% number=40
compound=O=Cc1ccc(O)c2ncccc12 unit_descriptor=% number=21.5
compound=CCN(CC)c1ccc(C(=O)c2ccc(N(CC)CC)cc2)cc1 unit_descriptor=% number=26.4
compound=Cc1ccc(-c2cc(-c3ccccc3C)[nH]c(=O)c2C#N)s1 unit_descriptor=% number=95.6
compound=Clc1cccc(Cl)c1C(Nc1nc2ccccc2s1)Nc1nc2ccccc2s1 unit_descriptor=% number=106
compound="COc1cc(C2CC(=O)Nc3c2c(C)nn3-c2nc3ccccc3[nH]2)c(OC)c(OC)c1OC (stereo not given)" unit_descriptor=% number=26.7
compound="CC1CC(C(C)(C)C)C(=O)C(C(C)(C)C)C1 (stereo not given)" unit_descriptor=% number=101

----------
Examples of molecules with documented growth follow.
# Tested on: MOLT-4 leukemia
# assay explanation: NCI-60 one-dose screen, 48 h (100 = growth as untreated, 0 = no growth, -100 = all killed)
# protocol conditions: 10 µM unless noted
The panel holds about 83,000 compounds, 20% with a hit somewhere; the sample as a whole holds those more often. Calls of active or inactive are those of the source. The calls were made as follows: active = growth percent below 10; inactive = the rest.
recorded metric: growth

molecule=COc1nc(N(C)O)nc(N(C)O)n1 recorded_metric=growth result="35.7% (inactive)"
molecule=Cc1ccc(C(=O)COc2cccc(/C=C3\Oc4ccccc4C3=O)c2)cc1 recorded_metric=growth result="73.8% (inactive)"
molecule=O=C(c1ccccc1)c1c(/C=C/c2ccccc2)nc2ccccc2c1/C=C/c1ccc(Br)cc1 recorded_metric=growth result="94.6% (inactive)"
molecule="CCOc1ccccc1-n1c(CN2CCN(C(=O)COc3ccc(CNCCCCCCN4C5CCCC4CC(OC(=O)Nc4cc(C)ccc4OC)C5)cc3)CC2)nc2ccccc2c1=O (centres undefined)" recorded_metric=growth result="-68% (active)"
molecule="CCSC1=NC2C(N(CC)C(=O)N2CC)N1/N=C/C=C/c1ccccc1[N+](=O)[O-] (centres undefined)" recorded_metric=growth result="15.1% (inactive)"
molecule=O=C(c1ccccc1)c1c(/C=C/c2ccc(Cl)cc2)nc2ccccc2c1/C=C/c1cccs1 recorded_metric=growth result="94.2% (inactive)"
molecule=Cn1c(=O)c2[nH]c(NN)nc2n(C)c1=O recorded_metric=growth result="96.1% (inactive)"
molecule=CN(C)c1ccc(-c2cc(-c3ccc(Nc4nc(Nc5ccc(Cl)cc5)nc(Nc5ccc(Cl)cc5)n4)cc3)no2)cc1 recorded_metric=growth result="-24.7% (active)"
molecule=CC(=O)[C@@H]1CC[C@]2(COS(=O)(=O)c3ccc(C)cc3)CC[C@]3(C)[C@H](CC[C@@H]4[C@@]5(C)CCCNC(C)(C)[C@@H]5CC[C@]43C)[C@@H]12 recorded_metric=growth result="21.9% (inactive)"

----------
Overview of recorded growth for various molecules
# System: EKVX NSCLC
# assay explanation: NCI-60 one-dose screen, 48 h (100 = growth as untreated, 0 = no growth, -100 = all killed)
# protocol conditions: 10 µM unless noted
About 83,000 compounds went through this panel and 20% of them were active in at least one assay; those are over-represented in the sample as a whole.
recorded metric: growth (%)

chemical_smiles=CCc1c2c(nc3ccc(OC(=O)OCc4ccc(B5OC(C)(C)C(C)(C)O5)cc4)cc13)-c1cc3c(c(=O)n1C2)COC(=O)[C@]3(O)CC recorded_metric=growth unit_descriptor=% number=37.3
chemical_smiles=COc1cccc(-c2nn(-c3ccccc3)cc2-c2ccnc(NCCCNC(=O)c3cccc(C(F)(F)F)c3)c2)c1 recorded_metric=growth unit_descriptor=% number=48.9
chemical_smiles=COc1cc(-c2n/c(=C\c3c(O)[nH]c4ccc(Cl)cc34)cc3c2=Nc2ccccc2-3)cc(OC)c1OC recorded_metric=growth unit_descriptor=% number=38.6
chemical_smiles=NS(=O)(=O)c1cnccc1Sc1ccncc1S(N)(=O)=O recorded_metric=growth unit_descriptor=% number=96.9
chemical_smiles=NC(=S)N/N=C/Cc1ccccc1 recorded_metric=growth unit_descriptor=% number=89.1

----------
# Tested on: EKVX NSCLC
# assay explanation: NCI-60 one-dose screen, 48 h
# protocol conditions: 10 µM unless noted
This is part of a sample that, as a whole, favours compounds with a hit. Of some 83,000 tested, about 20% had one in any assay. Activity calls are given as the source filed them. How the source made its calls: active means growth percent below 10; inactive means the rest.
Outcome codes: yes (1) = active, no (0) = inactive

molecule="CC1SC(c2ccc(OCc3ccccc3)cc2)N(NC(=O)C(O)(c2ccccc2)c2ccccc2)C1=O (centres undefined)" classification="no (0)"
molecule=Cc1ccccc1NC(=O)N/C(N)=N/c1nc(C)c(C)s1 classification="no (0)"
molecule="Cc1ccc(C(=O)C2=C(O)C(=O)N(Cc3cccnc3)C2c2ccccc2F)o1 (centres undefined)" classification="no (0)"
molecule="CC1=CN2C(=O)C3C4=C(CCCC4)SC3N=C2CN1c1c(C)cccc1C (centres undefined)" classification="no (0)"
molecule=Clc1cccc(Cl)c1C(Nc1nc2ccccc2s1)Nc1nc2ccccc2s1 classification="no (0)"
molecule=Clc1ccc(-c2c3ccc(=[N+]4CCCCC4)cc-3oc3cc(N4CCCCC4)ccc23)cc1 classification="yes (1)"
molecule="COc1ccc(CNC(=O)C(O)C(Cc2ccccc2)NC(=O)c2[nH]c3ccccc3c(=O)c2C)cc1OC (centres undefined)" classification="no (0)"
molecule=Cn1c(=O)c2c(nc(Cl)n2CCl)n(C)c1=O classification="no (0)"
molecule=CCCCc1ccc(Nc2ccc(Nc3ccc(CCCC)cc3S(=O)(=O)O)c3c2C(=O)c2ccccc2C3=O)c(S(=O)(=O)O)c1 classification="no (0)"

----------
# Test system: RXF 393 renal
# assay explanation: NCI-60 one-dose screen, 48 h (100 = growth as untreated, 0 = no growth, -100 = all killed)
# protocol conditions: 10 µM unless noted
About 83,000 compounds went through this panel and 20% of them were active in at least one assay; those are over-represented in the sample as a whole.
Listed molecules paired with reported growth
recorded metric: growth (%)

molecule=N#Cc1c(N)nn(C(=O)c2ccc(NC(=O)c3ccccn3)cc2)c1-c1ccc(Cl)cc1 number=54
molecule="O=C1Nc2ccc(F)cc2C12Nc1cc(Cl)ccc1S2 (stereo not given)" number=110
molecule=Cc1ccc(N(C(=O)CCc2c[nH]c3ccccc23)[C@H](C(=O)Nc2ccc(Cl)cc2)c2cccc([N+](=O)[O-])c2)cc1 number=95.7
molecule=COc1ccc(C(=O)/C=C/c2c(C(F)(F)F)nc3sccn23)cc1OC number=39.1
molecule="COc1ccc(/C=N/C2=C(C#N)C(c3ccc(OC)cc3)c3ccc4ccccc4c3O2)cc1 (stereo not given)" number=84.8
molecule=CCCCCCCCCCCCCCCCCCOc1ccccc1CC(=O)OCCC[N+](C)(C)C number=-18.2
molecule=O=C(CCc1nnc(CN(c2ccccc2)c2ccccc2)o1)c1nc2ccccc2[nH]1 number=113
molecule=CCCCCS(=O)(=O)Nc1ccc(C(=O)O)cc1 number=114
molecule=O=C(Nc1cccc(Oc2nnc(Cl)c3ccccc23)c1)Nc1ccc(Cl)c(C(F)(F)F)c1 number=-62.3
molecule=COc1cc(/C=C2\C(=O)ON=C2C)cc(OC)c1OC number=114

----------
# Tested on: SNB-75 CNS
# assay explanation: NCI-60 one-dose screen, 48 h (100 = growth as untreated, 0 = no growth, -100 = all killed)
# protocol conditions: 10 µM unless noted
The panel holds about 83,000 compounds, 20% with a hit somewhere; the sample as a whole holds those more often.
Listed here are compounds together with their documented growth.
recorded metric: growth (%)

compound=O=c1oc2ccccc2c(Cl)c1Cl recorded_metric=growth number=82.4
compound=COc1ccc(-c2nc3c(N)c(CO)c(C)nc3o2)cc1 recorded_metric=growth number=98.9
compound=Cc1ccc(-c2cc(-c3ccccc3C)[nH]c(=O)c2C#N)s1 recorded_metric=growth number=71.6
compound="CCC1(C2CCCC2)NC(=O)NC1=O (configuration not stated)" recorded_metric=growth number=93.9
compound=COc1ccc(-c2nc(SCCC(C)C)nc(N/N=C\c3cccc([N+](=O)[O-])c3)c2C#N)cc1 recorded_metric=growth number=-14
compound=CCc1ccccc1-n1c(N)c(C#N)c(-c2ccc(N(C)C)cc2)c(C#N)c1=O recorded_metric=growth number=88.3
compound="CCCCOc1nc2ccccc2cc1C1CNC(=O)c2ccccc2N1 (configuration not stated)" recorded_metric=growth number=3.14
compound="CC(C)(C)C(CCc1ccc(Cl)cc1)N1CCN(C2CCCCC2)CC1 (configuration not stated)" recorded_metric=growth number=77.7
compound=CCN(CC)Cc1cccc(C(=O)OC)c1 recorded_metric=growth number=87.9
compound=COc1cc(CCC[P+](c2ccccc2)(c2ccccc2)c2ccccc2)cc2c1OCO2 recorded_metric=growth number=12.7
compound="CC(=O)OC[C@H]1OC(Sc2sc(C(=O)c3ccc(Br)cc3)c(N)c2-c2nc3ccccc3s2)[C@H](OC(C)=O)[C@@H](OC(C)=O)[C@@H]1OC(C)=O (some centres not stated)" recorded_metric=growth number=-16.7
compound=COC1=CC(=O)C[C@@H](C)[C@]12Oc1c(Cl)c(OC)cc(OC)c1C2=O recorded_metric=growth number=67.8
compound=O=C(Nc1ccccc1-c1nc2ccccc2c(=O)[nH]1)c1cc2ccccc2[nH]1 recorded_metric=growth number=63
compound=C[C@H](NC(=O)[C@@H]1CSSC[C@@H](NC(=O)c2nc3ccccc3cc2O)C(=O)NCC(=O)N1C)c1ccccc1 recorded_metric=growth number=80.3
compound=COc1cc(/C=N/Nc2ncc(-c3cc4cc5c(cc4o3)OCO5)s2)cc(OC)c1OC recorded_metric=growth number=72.4
compound="COc1ccc(Cl)cc1NC(=O)C(Br)C(Br)C(=O)O (configuration not stated)" recorded_metric=growth number=103
compound=CN(Cc1cnc2nc(N)nc(N)c2n1)c1ccc(C(=O)N[C@@H](CCc2nn[nH]n2)c2nn[nH]n2)cc1 recorded_metric=growth number=76.6
compound=O=C(O)c1ccc2c(c1Cl)C(=O)c1ccccc1C2=O recorded_metric=growth number=73.1
compound=COc1ccc(NC(=O)c2nc(-c3cc(OC)c(OC)c(OC)c3)n(-c3cccc4ccccc34)n2)cc1OC recorded_metric=growth number=24.4
compound=CCCCCc1nc2c(c3c1CCCC3)CCCC2 recorded_metric=growth number=82.1
compound=Cc1ccc(/C=C/c2c(C(=O)/C=C/c3ccc(C(F)(F)F)cc3)c(C)nc3ccccc23)cc1 recorded_metric=growth number=-42.5
compound=CC(=O)c1ccc(NCC(=O)Nc2ccccn2)cc1 recorded_metric=growth number=92.7
compound=C=CCNc1nc(NN2C(=O)c3cccc4cccc(c34)C2=O)nc(-n2cnc3ccccc32)n1 recorded_metric=growth number=39.2
compound=O=C(Nc1cccc(C(F)(F)F)c1)Nc1cccc(C(F)(F)F)c1 recorded_metric=growth number=11.1
compound="O=C(NC(Cc1nnc2n(Cc3ccccc3)c(=O)c3c4c(sc3n12)CCCC4)c1ccc(Cl)cc1)c1ccccc1 (configuration not stated)" recorded_metric=growth number=73.7
compound=Cc1ccc(NCCN(C)C)c2c(=O)c3ccccc3sc12 recorded_metric=growth number=41.2
compound=COc1cccc(-c2nc3sccn3c2/C=C/C(=O)c2ccc(C(F)(F)F)cc2)c1 recorded_metric=growth number=81.7
compound=O=S(=O)(NCCCNc1cc(-c2c(-c3cccc(O)c3)nc3sccn23)ccn1)c1cccc(Cl)c1 recorded_metric=growth number=14.2
compound=Cc1cc(Cl)ccc1Nc1nc(C(F)(F)F)ccc1C(=O)N/N=C/c1ccc(N(C)C)cc1 recorded_metric=growth number=65.1
compound=Fc1ccc(CNc2c3ccccc3nc3ccccc23)cc1F recorded_metric=growth number=66.2
compound=COc1ccc(-c2nc(SCCC(C)C)nc(N/N=C\c3cccc(Cl)c3)c2C#N)cc1 recorded_metric=growth number=4.61
compound=CN(C)CCCn1c(=O)c2ccccc2c2ccccc21 recorded_metric=growth number=85.9
compound=C[C@@H]1N=C(c2ccc3ccccc3n2)Nc2nc3ccccn3c2C1=O recorded_metric=growth number=84.7
compound=Cc1ccc(C(=NN=C(N)N)c2ccc(C)cc2)cc1 recorded_metric=growth number=-1.11
compound=Cc1ccc2c(c1)Sc1c(ccc3ccccc13)N2 recorded_metric=growth number=51.8
compound=COc1ccc2c(c1)O/C(=C/c1ccc(OCC(=O)c3ccccc3)cc1)C2=O recorded_metric=growth number=120
compound="Cc1cc(O)c(C2=NN(c3ccc(S(N)(=O)=O)cc3)C(c3ccccc3Cl)C2)cc1Cl (configuration not stated)" recorded_metric=growth number=41.7
compound=OC(COc1ccccc1Cl)COc1ccccc1Cl recorded_metric=growth number=85.4
compound=CCOC(=O)c1c(-c2ccc(Cl)cc2)c(C#N)c(=O)n(-c2ccccc2CC)c1N recorded_metric=growth number=89.8
compound=N[C@@H](CCCCNCC(=O)O)C(=O)O recorded_metric=growth number=84.1
compound=Cc1ccc(N(C(=O)CCc2c[nH]c3ccccc23)[C@H](C(=O)Nc2ccc(Cl)cc2)c2cccc([N+](=O)[O-])c2)cc1 recorded_metric=growth number=84.1
compound=O=C(O)CN1C(=O)CCC1=O recorded_metric=growth number=95.3
